# System: HEK293T (UBE3A T485A transfected, BAR Wnt reporter)
# protocol_notes: Renilla luciferase signal (cell health) relative to plate median (fold (linear ratio)); higher = higher Renilla signal
# stated_conditions: concentration: 100 uM; 24 h
Over roughly 1,100 compounds, “Renilla luciferase signal (cell health) relative to plate median” has its median near 0.97; the highest 2% begin near 1.6. The full list was thinned out, with the highest values kept by preference.
Threshold rule: Renilla luciferase signal greater than or equal to 1 is YES; below that, NO.

# example entries with known answers
CN1C2CC(OC(=O)C(CO)c3ccccc3)CC1C1OC12 (stereo unspecified) :: YES
CCOP(=O)(OCC)Oc1cc(C)nc(C(C)C)n1 :: YES
Cc1cnc(C2=NC(=O)C(C)(C(C)C)N2)c(C(=O)O)c1 (stereo unspecified) :: YES
CN/C(=N\[N+](=O)[O-])NCc1cnc(Cl)s1 :: YES

(Q) Has O=c1n(Cl)c(=O)n(Cl)c(=O)n1Cl a recorded Renilla luciferase signal greater than or equal to 1?
(A) YES

(Q) Has Nc1c(Cl)c(F)nc(OCC(=O)O)c1Cl a recorded Renilla luciferase signal greater than or equal to 1?
(A) YES

(Q) Has Nc1ccc(Cl)cc1N a recorded Renilla luciferase signal greater than or equal to 1?
(A) NO

(Q) Has Cc1cc(Cl)ccc1OCC(=O)O a recorded Renilla luciferase signal greater than or equal to 1?
(A) YES

(Q) Has COc1cc(-c2ccc(N)c(OC)c2)ccc1N.Cl.Cl [3,3'-Dimethoxybenzidine dihydrochloride] a recorded Renilla luciferase signal greater than or equal to 1?
(A) NO

(Q) Has Cc1ccc(N=C=O)cc1N=C=O [Toluene-2,4-diisocyanate] a recorded Renilla luciferase signal greater than or equal to 1?
(A) NO

(Q) Has Cc1ccc(/N=C/N(C)/C=N/c2ccc(C)cc2C)c(C)c1 a recorded Renilla luciferase signal greater than or equal to 1?
(A) NO

(Q) Has CNC(=O)Oc1ccccc1OC(C)C a recorded Renilla luciferase signal greater than or equal to 1?
(A) YES

====

# Test system: HEK293T (UBE3A T485A transfected, BAR Wnt reporter)
# protocol_notes: Renilla luciferase signal (cell health) relative to plate median (fold (linear ratio)); higher = higher Renilla signal
# stated_conditions: concentration: 10 uM; 24 h
In all, about 1,100 compounds were measured (“Renilla luciferase signal (cell health) relative to plate median”: median about 0.97, highest 2% from about 1.6 on). This is one part of a sample in which the highest values are shown more often than they occur.
Consider the reported Renilla luciferase signal of an entry and match it to a band in interval 1 (below 0.9), interval 2 (0.9 to below 1), interval 3 (1 or more)

# example entries with known answers
CC(C)(C)c1ccccc1O :: interval 1
CNC(=O)ON=C(C)SC :: interval 3
Clc1cccc(Cl)c1Cl :: interval 3
O=C(O)C1(c2ccc3c(c2)OC[C@H](Cc2ccc(-c4ccccc4)cc2)[C@H]3O)CCCC1 :: interval 1

(Q) Lab note: sort Cc1cnc(C2=NC(=O)C(C)(C(C)C)N2)c(C(=O)O)c1 (configuration not stated) into the matching Renilla luciferase signal band.
(A) interval 3

(Q) Lab note: sort CCCCC(CC)COC(=O)c1ccccc1C(=O)OCC(CC)CCCC (configuration not stated) [Di(2-ethylhexyl) phthalate] into the matching Renilla luciferase signal band.
(A) interval 3

(Q) Lab note: sort CCCCOC(=O)[C@@H](C)Oc1ccc(Oc2ccc(C#N)cc2F)cc1 into the matching Renilla luciferase signal band.
(A) interval 3

(Q) Lab note: sort COc1cc(C=O)cc2c1[C@H](COC(N)=O)[C@]1(OC(C)=O)ON2C[C@H]2[C@@H]1N2C(C)=O into the matching Renilla luciferase signal band.
(A) interval 1

====

# Test system: HEK293T (UBE3A T485A transfected, BAR Wnt reporter)
# protocol_notes: Renilla luciferase signal (cell health) relative to plate median (fold (linear ratio)); higher = higher Renilla signal
# stated_conditions: concentration: 100 uM; 24 h
In all, about 1,100 compounds were measured (“Renilla luciferase signal (cell health) relative to plate median”: median about 0.97, highest 2% from about 1.6 on). For the sample, the highest values were picked, then their nearest neighbours and some compounds at random.
Give Renilla luciferase signal for every item shown.
Numbers only.

Cc1cccc(C)c1N :: 0.897
Cc1ccc(N)cc1 :: 0.856
C1=CCCC=CCCC=CCC1 :: 1.02
CCOC(=O)C(O)(c1ccc(Cl)cc1)c1ccc(Cl)cc1 [Chlorobenzilate] :: 1.26
CNC(=O)Oc1cccc2c1OC(C)(C)C2 :: 0.523

Reported Renilla luciferase signal of CCN(CC)N=O : 1.08

====

Give Renilla luciferase signal for every item shown.
# Test system: HEK293T (UBE3A T485A transfected, BAR Wnt reporter)
# protocol_notes: Renilla luciferase signal (cell health) relative to plate median (fold (linear ratio)); higher = higher Renilla signal
# stated_conditions: concentration: 0.01 uM; 24 h
In all, about 1,100 compounds were measured (“Renilla luciferase signal (cell health) relative to plate median”: median about 0.97, highest 2% from about 1.6 on). Only a selection was taken, and the highest values are over-represented in it overall.
One number for each entry.

COP(=O)(OC)O/C(C)=C/C(=O)N(C)C [Dicrotophos] :: 1.19
CCC(C)(CC)c1cc(NC(=O)c2c(OC)cccc2OC)on1 [Isoxaben] :: 0.906
CCNc1nc(NC(C)C)nc(SC)n1 [Ametryn] :: 0.34
CSC1=N[C@@](C)(c2ccccc2)C(=O)N1Nc1ccccc1 [Fenamidone] :: 0.641
CC(Oc1ccc(Cl)cc1Cl)C(=O)O (stereo not given) [Dichlorprop] :: 0.843
COP(=O)(OC)OC=C(Cl)Cl [Dichlorvos] :: 1.12
Cc1cnc(C2=NC(=O)C(C)(C(C)C)N2)c(C(=O)O)c1 (stereo not given) [Imazapic] :: 1.11
CCOP(=S)(OCC)SCn1c(=O)oc2cc(Cl)ccc21 [Phosalone] :: 0.915

Below are some compounds; for each one, tell me its Renilla luciferase signal.
1. CNC(=O)/C=C(\C)OP(=O)(OC)OC [Monocrotophos]
2. CCCN(CC)CC1COC2(CCC(C(C)(C)C)CC2)O1 (stereo not given) [Spiroxamine]

(A)
[0.824, 0.835]

====

# System: HEK293T (UBE3A T485A transfected, BAR Wnt reporter)
# protocol_notes: Renilla luciferase signal (cell health) relative to plate median (fold (linear ratio)); higher = higher Renilla signal
# stated_conditions: concentration: 0.01 uM; 24 h
Over roughly 1,100 compounds, “Renilla luciferase signal (cell health) relative to plate median” has its median near 0.97; the highest 2% begin near 1.6. The sample holds the highest values, similar compounds and a random draw of the others, so the mix is not that of the screen.
Give Renilla luciferase signal for every item shown.
Numbers only.

Worked examples, 5 compounds total:
COCc1cnc(C2=NC(C)(C(C)C)C(=O)N2)c(C(=O)O)c1 (stereo not drawn) :: 0.649
Cc1[nH]c(=O)n(C(C)(C)C)c(=O)c1Cl :: 0.884
COC(=O)NS(=O)(=O)c1ccc(N)cc1 :: 1.08
O=C(O)c1c(Cl)ccc2cc(Cl)cnc12 :: 1.12
Cc1nc(N(C)C)nc(OC(=O)N(C)C)c1C :: 1.09

Below are some compounds; for each one, tell me its Renilla luciferase signal.
1. COC(=O)NC(=S)Nc1ccccc1NC(=S)NC(=O)OC [Thiophanate-methyl]
2. CC(C)C1(C)N=C(c2ncccc2C(=O)O)NC1=O (stereo not drawn)
3. O=C(NC(=O)c1c(F)cccc1F)Nc1ccc(OC(F)(F)C(F)OC(F)(F)F)c(Cl)c1 (stereo not drawn)

(A)
1.37
0.822
1.08

====

Give Renilla luciferase signal for every item shown.
# Test system: HEK293T (UBE3A T485A transfected, BAR Wnt reporter)
# protocol_notes: Renilla luciferase signal (cell health) relative to plate median (fold (linear ratio)); higher = higher Renilla signal
# stated_conditions: concentration: 100 uM; 24 h
The full ranking holds about 1,100 compounds; the median of “Renilla luciferase signal (cell health) relative to plate median” is about 0.97, and the highest 2% start at about 1.6. Only a selection was taken, and the highest values are over-represented in it overall.
Give bare numbers.

CN(C)C(=O)Nc1ccc(Cl)cc1 :: 0.972
CCC(C)(C)c1ccc(O)c(C(C)(C)CC)c1 :: 1.13
CC1(C)C(C=C(Cl)Cl)C1C(=O)OC(C#N)c1ccc(F)c(Oc2ccccc2)c1 (centres undefined) :: 1.1
CCC(CC)Nc1c([N+](=O)[O-])cc(C)c(C)c1[N+](=O)[O-] :: 0.801
CC(C)(O)C(=O)Nc1ccc([N+](=O)[O-])c(C(F)(F)F)c1 [Hydroxyflutamide] :: 0.129

Below are some molecules; for each one, tell me its Renilla luciferase signal.
1. CC(C)Oc1cccc(NC(=O)c2ccccc2C(F)(F)F)c1
2. CN(C)C(=O)Nc1cccc(C(F)(F)F)c1
3. CC(C)N(C(=O)SCC(Cl)=C(Cl)Cl)C(C)C [Tri-allate]

(A)
1. 1.07
2. 1.74
3. 1.76

Reported Renilla luciferase signal of Cc1nc(N(C)C)nc(OC(=O)N(C)C)c1C : 2.4

Data provenance: the supplement of paper PMC9254222
